The measurements presented in this section are drawn from PubChem BioAssay (NCI).

GI50 overview
- System: OVCAR-5 ovarian
- procedure summary: NCI tumour cell line growth inhibition, 48 h
endpoint label: GI50

>>> val("CC(=O)OC1C(O)COC(Oc2c(C)c3c4c(c2O)[C@@H](C)CC[C@@H]4[C@@H](C)C[C@H]3C=C(C)C)C1O (some centres not stated)")
"23.2 µM"
>>> val("CC(=O)[CH-]C(=O)c1ccccc1.CC(=O)[CH-]C(=O)c1ccccc1.[O-]c1ccc(O)cc1.[O-]c1ccc(O)cc1.[Ti+4]")
"35.1 µM"
>>> val("COc1cc2c3c(n(CCCn4cccn4)c(=O)c2cc1OC)-c1cc2c(cc1C3=O)OCO2")
"14 µM"
>>> val("CNC1=C(Br)C(=O)C2=C(C1=O)C1C3=C(C(=O)C=CC3=O)C2c2ccccc21 (configuration not stated)")
"6.96 µM"
>>> val("COc1cc(C)c(N(C)C(=O)CN(C)C)cc1Nc1nc(Nc2cccc(F)c2C(N)=O)c2cc[nH]c2n1")
"1.41 µM"
>>> val("CC(=O)O[C@H]1CC[C@]2(C)[C@H]3C(=O)C=C4[C@@H]5C[C@](C)(C(=O)N6CCCNCC6)CC[C@]5(C)CC[C@@]4(C)[C@]3(C)CC[C@H]2C1(C)C")
"1.6 µM"
>>> val("COc1cccc2c1C(=O)c1c(O)c3c(c(O)c1C2=O)C[C@@](O)(C(=O)COC(=O)c1cccnc1)C[C@@H]3OC1CC(N)C(O)C(C)O1 (some centres not stated)")
"0.335 µM"
